Ref: patent US7517517B2

- assayed.target: rat mGlu1a receptor (Rattus norvegicus)
- Construct: host or cells: CHO-dhfr- cells
- Sequence (P23385 19-1199): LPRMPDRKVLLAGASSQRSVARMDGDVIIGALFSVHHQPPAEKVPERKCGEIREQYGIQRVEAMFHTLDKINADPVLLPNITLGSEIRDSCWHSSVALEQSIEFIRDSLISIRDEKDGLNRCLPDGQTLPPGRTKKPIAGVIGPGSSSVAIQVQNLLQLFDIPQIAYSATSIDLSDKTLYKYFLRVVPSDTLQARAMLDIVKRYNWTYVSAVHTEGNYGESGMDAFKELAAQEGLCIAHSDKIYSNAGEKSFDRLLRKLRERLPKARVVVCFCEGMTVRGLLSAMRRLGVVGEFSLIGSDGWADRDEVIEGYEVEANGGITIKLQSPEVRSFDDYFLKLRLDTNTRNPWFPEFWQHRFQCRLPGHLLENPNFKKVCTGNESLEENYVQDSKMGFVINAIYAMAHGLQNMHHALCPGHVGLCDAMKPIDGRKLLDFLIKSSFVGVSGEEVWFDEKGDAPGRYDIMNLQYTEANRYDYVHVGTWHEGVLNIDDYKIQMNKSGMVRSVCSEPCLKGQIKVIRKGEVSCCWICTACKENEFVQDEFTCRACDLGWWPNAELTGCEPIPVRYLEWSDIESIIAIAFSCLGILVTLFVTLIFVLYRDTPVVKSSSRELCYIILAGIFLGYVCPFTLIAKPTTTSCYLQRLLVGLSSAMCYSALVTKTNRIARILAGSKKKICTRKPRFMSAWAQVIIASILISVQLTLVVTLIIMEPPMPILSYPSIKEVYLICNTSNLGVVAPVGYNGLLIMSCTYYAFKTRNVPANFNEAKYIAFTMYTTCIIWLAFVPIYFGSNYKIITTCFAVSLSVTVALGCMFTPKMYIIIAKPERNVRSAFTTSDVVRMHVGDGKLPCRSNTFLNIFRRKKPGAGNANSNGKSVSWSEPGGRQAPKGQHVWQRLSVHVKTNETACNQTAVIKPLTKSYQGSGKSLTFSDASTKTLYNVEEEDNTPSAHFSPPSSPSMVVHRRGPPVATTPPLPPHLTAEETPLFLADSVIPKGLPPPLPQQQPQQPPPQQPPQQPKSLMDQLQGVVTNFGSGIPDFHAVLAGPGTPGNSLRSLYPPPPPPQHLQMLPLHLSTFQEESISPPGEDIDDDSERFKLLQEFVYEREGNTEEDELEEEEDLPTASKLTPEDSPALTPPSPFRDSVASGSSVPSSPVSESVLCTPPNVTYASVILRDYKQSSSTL
- measurement.notes: [3H]Compound A binding to rat mGlu1a receptor CHO-dhfr− membranes (saturation, kinetics, inhibition)
- details: 2.5 nM [3H]Compound A, 30 min at 4° C.; mean ± SD of 3–4 experiments
recorded.metric: Ki

N[C@H](C(=O)O)c1ccc(C(=O)O)cc1 [(S)-4CPG, reference compound]    > 1e+06 nM
NC1(C(=O)O)CCc2cc(C(=O)O)ccc21 (stereo not drawn) [AIDA, reference compound]    > 1e+06 nM

Below: the item to evaluate.
Prompt: I have this compound here, N[C@H](C(=O)O)c1cc(O)cc(O)c1 [(S)-3,5-DHPG, reference compound] , and I need its recorded Ki.
Response: > 1e+06 nM
